PROTOCOL_NOTES: Stability of liquid pharmaceutical forms (peptide 0.2 %, benzalkonium chloride 0.01 %, water) during storage; single and total impurities
Format: physicochemical
CONDITION_DETAILS: stored for 12 months at +25° C.
Non-standard residues stand in square brackets, D forms with d. No end group written: not given here. Hyp = O=C(O)[C@@H]1C[C@@H](O)CN1
Listed substances paired with reported Total impurities
MEASURED_PARAMETER: Total impurities (%)

Thr-Lys-Hyp-Arg-Hyp (TK[Hyp]R[Hyp]) [pentapeptide of the invention containing hydroxyproline] | 0.9
Thr-Lys-Hyp-Arg-Hyp-Phe (TK[Hyp]R[Hyp]F) [hexapeptide of the invention containing hydroxyproline] | 0.8
Thr-Lys-Pro-Arg-Pro (TKPRP; not fully specified; printed as Thr-Lys-Pro-Arg-Pro) [pentapeptide described in RU2507212, comparison peptide, reference compound] | 6
Thr-Lys-Hyp-Arg-Hyp-Gly-Hyp (TK[Hyp]R[Hyp]G[Hyp]) [peptide according to the invention containing hydroxyproline] | 1.1

###

Tested on: female rats
PROTOCOL_NOTES: Efficacy in vivo on preclinical model (Lordoz test): proceptive behavior of ovarioectomized, hormonally stimulated females
CONDITION_DETAILS: day 16 of giving the drug, 100 mcg/rat, progesterone 0.5 mg/rat
Non-standard residues stand in square brackets, D forms with d. No end group written: not given here. Hyp = O=C(O)[C@@H]1C[C@@H](O)CN1
Listed substances paired with reported Number of proceptive behavior acts
MEASURED_PARAMETER: Number of proceptive behavior acts

Thr-Lys-Pro-Arg-Pro-Phe (TKPRPF; not fully specified; printed as Thr-Lys-Pro-Arg-Pro-Phe) [hexapeptide described in RU2507212, comparison peptide, reference compound] | 26
Thr-Lys-Hyp-Arg-Hyp (TK[Hyp]R[Hyp]) [pentapeptide of the invention containing hydroxyproline] | 36
Thr-Lys-Hyp-Arg-Hyp-Phe (TK[Hyp]R[Hyp]F) [hexapeptide of the invention containing hydroxyproline] | 24
Thr-Lys-Pro-Arg-Pro (TKPRP; not fully specified; printed as Thr-Lys-Pro-Arg-Pro) [pentapeptide described in RU2507212, comparison peptide, reference compound] | 36

###

PROTOCOL_NOTES: Stability of liquid pharmaceutical forms (peptide 0.2 %, benzalkonium chloride 0.01 %, water) during storage; single and total impurities
Assay type: physicochemical
CONDITION_DETAILS: stored for 24 months at +4° C.
Non-standard residues stand in square brackets, D forms with d. No end group written: not given here. Hyp = O=C(O)[C@@H]1C[C@@H](O)CN1
Listed substances paired with reported Single impurities
MEASURED_PARAMETER: Single impurities (%)

Thr-Lys-Hyp-Arg-Hyp-Gly-Hyp (TK[Hyp]R[Hyp]G[Hyp]) [peptide according to the invention containing hydroxyproline] | 0.1
Thr-Lys-Hyp-Arg-Hyp-Phe (TK[Hyp]R[Hyp]F) [hexapeptide of the invention containing hydroxyproline] | 0.9
Thr-Lys-Hyp-Arg-Hyp (TK[Hyp]R[Hyp]) [pentapeptide of the invention containing hydroxyproline] | 0.1
Thr-Lys-Pro-Arg-Pro-Phe (TKPRPF; not fully specified; printed as Thr-Lys-Pro-Arg-Pro-Phe) [hexapeptide described in RU2507212, comparison peptide, reference compound] | 1.6
Thr-Lys-Pro-Arg-Pro (TKPRP; not fully specified; printed as Thr-Lys-Pro-Arg-Pro) [pentapeptide described in RU2507212, comparison peptide, reference compound] | 1.1
Thr-Lys-Pro-Arg-Pro-Gly-Pro (TKPRPGP; not fully specified; printed as Thr-Lys-Pro-Arg-Pro-Gly-Pro) [heptopeptide “Selank”, a synthetic analogue of the endogenous peptide tuftsin, reference compound] | 2

###

PROTOCOL_NOTES: Stability of liquid pharmaceutical forms (peptide 0.2 %, benzalkonium chloride 0.01 %, water) during storage; single and total impurities
Type: physicochemical
CONDITION_DETAILS: stored for 3 months at +4° C.
Non-standard residues stand in square brackets, D forms with d. No end group written: not given here. Hyp = O=C(O)[C@@H]1C[C@@H](O)CN1
MEASURED_PARAMETER: Single impurities (%)

Thr-Lys-Pro-Arg-Pro-Gly-Pro (TKPRPGP; not fully specified; printed as Thr-Lys-Pro-Arg-Pro-Gly-Pro) [heptopeptide “Selank”, a synthetic analogue of the endogenous peptide tuftsin, reference compound] | 0.07
Thr-Lys-Pro-Arg-Pro-Phe (TKPRPF; not fully specified; printed as Thr-Lys-Pro-Arg-Pro-Phe) [hexapeptide described in RU2507212, comparison peptide, reference compound] | 0.09
Thr-Lys-Pro-Arg-Pro (TKPRP; not fully specified; printed as Thr-Lys-Pro-Arg-Pro) [pentapeptide described in RU2507212, comparison peptide, reference compound] | 0.042
Thr-Lys-Hyp-Arg-Hyp (TK[Hyp]R[Hyp]) [pentapeptide of the invention containing hydroxyproline] | 0.03
Thr-Lys-Hyp-Arg-Hyp-Gly-Hyp (TK[Hyp]R[Hyp]G[Hyp]) [peptide according to the invention containing hydroxyproline] | 0.05
Thr-Lys-Hyp-Arg-Hyp-Phe (TK[Hyp]R[Hyp]F) [hexapeptide of the invention containing hydroxyproline] | 0.068

###

PROTOCOL_NOTES: Stability of liquid pharmaceutical forms (peptide 0.2 %, benzalkonium chloride 0.01 %, water) during storage; single and total impurities
Type: physicochemical
CONDITION_DETAILS: stored for 24 months at +4° C.
Non-standard residues stand in square brackets, D forms with d. No end group written: not given here. Hyp = O=C(O)[C@@H]1C[C@@H](O)CN1
MEASURED_PARAMETER: Total impurities (%)

Thr-Lys-Hyp-Arg-Hyp-Gly-Hyp (TK[Hyp]R[Hyp]G[Hyp]) [peptide according to the invention containing hydroxyproline] | 1.1
Thr-Lys-Hyp-Arg-Hyp (TK[Hyp]R[Hyp]) [pentapeptide of the invention containing hydroxyproline] | 0.7

###

PROTOCOL_NOTES: Stability of liquid pharmaceutical forms (peptide 0.2 %, benzalkonium chloride 0.01 %, water) during storage; single and total impurities
Type: physicochemical
CONDITION_DETAILS: stored for 1 month at +25° C.; solution 0.2 mass % peptide, 0.01 mass % benzalkonium chloride
Non-standard residues stand in square brackets, D forms with d. No end group written: not given here. Hyp = O=C(O)[C@@H]1C[C@@H](O)CN1
MEASURED_PARAMETER: Total impurities (%)

Thr-Lys-Hyp-Arg-Hyp-Phe (TK[Hyp]R[Hyp]F) [hexapeptide of the invention containing hydroxyproline] | 0.09
Thr-Lys-Hyp-Arg-Hyp (TK[Hyp]R[Hyp]) [pentapeptide of the invention containing hydroxyproline] | 0.14
Thr-Lys-Hyp-Arg-Hyp-Gly-Hyp (TK[Hyp]R[Hyp]G[Hyp]) [peptide according to the invention containing hydroxyproline] | 0.14
Thr-Lys-Pro-Arg-Pro-Gly-Pro (TKPRPGP; not fully specified; printed as Thr-Lys-Pro-Arg-Pro-Gly-Pro) [heptopeptide “Selank”, a synthetic analogue of the endogenous peptide tuftsin, reference compound] | 0.13

###

Listed substances paired with reported Single impurities
PROTOCOL_NOTES: Stability of liquid pharmaceutical forms (peptide 0.2 %, benzalkonium chloride 0.01 %, water) during storage; single and total impurities
Format: physicochemical
CONDITION_DETAILS: stored for 6 months at +4° C.
Non-standard residues stand in square brackets, D forms with d. No end group written: not given here. Hyp = O=C(O)[C@@H]1C[C@@H](O)CN1
MEASURED_PARAMETER: Single impurities (%)

Thr-Lys-Hyp-Arg-Hyp (TK[Hyp]R[Hyp]) [pentapeptide of the invention containing hydroxyproline] | 0.04
Thr-Lys-Pro-Arg-Pro-Phe (TKPRPF; not fully specified; printed as Thr-Lys-Pro-Arg-Pro-Phe) [hexapeptide described in RU2507212, comparison peptide, reference compound] | 0.5
Thr-Lys-Hyp-Arg-Hyp-Phe (TK[Hyp]R[Hyp]F) [hexapeptide of the invention containing hydroxyproline] | 0.08
Thr-Lys-Pro-Arg-Pro (TKPRP; not fully specified; printed as Thr-Lys-Pro-Arg-Pro) [pentapeptide described in RU2507212, comparison peptide, reference compound] | 0.09
Thr-Lys-Pro-Arg-Pro-Gly-Pro (TKPRPGP; not fully specified; printed as Thr-Lys-Pro-Arg-Pro-Gly-Pro) [heptopeptide “Selank”, a synthetic analogue of the endogenous peptide tuftsin, reference compound] | 0.8
Thr-Lys-Hyp-Arg-Hyp-Gly-Hyp (TK[Hyp]R[Hyp]G[Hyp]) [peptide according to the invention containing hydroxyproline] | 0.06

###

PROTOCOL_NOTES: Stability of liquid pharmaceutical forms (peptide 0.2 %, benzalkonium chloride 0.01 %, water) during storage; single and total impurities
Type: physicochemical
CONDITION_DETAILS: stored for 6 months at +4° C.
Non-standard residues stand in square brackets, D forms with d. No end group written: not given here. Hyp = O=C(O)[C@@H]1C[C@@H](O)CN1
Listed substances paired with reported Total impurities
MEASURED_PARAMETER: Total impurities (%)

Thr-Lys-Pro-Arg-Pro-Phe (TKPRPF; not fully specified; printed as Thr-Lys-Pro-Arg-Pro-Phe) [hexapeptide described in RU2507212, comparison peptide, reference compound] | 1.1
Thr-Lys-Pro-Arg-Pro (TKPRP; not fully specified; printed as Thr-Lys-Pro-Arg-Pro) [pentapeptide described in RU2507212, comparison peptide, reference compound] | 1
Thr-Lys-Hyp-Arg-Hyp-Phe (TK[Hyp]R[Hyp]F) [hexapeptide of the invention containing hydroxyproline] | 0.2
Thr-Lys-Pro-Arg-Pro-Gly-Pro (TKPRPGP; not fully specified; printed as Thr-Lys-Pro-Arg-Pro-Gly-Pro) [heptopeptide “Selank”, a synthetic analogue of the endogenous peptide tuftsin, reference compound] | 1.4
Thr-Lys-Hyp-Arg-Hyp (TK[Hyp]R[Hyp]) [pentapeptide of the invention containing hydroxyproline] | 0.1
Thr-Lys-Hyp-Arg-Hyp-Gly-Hyp (TK[Hyp]R[Hyp]G[Hyp]) [peptide according to the invention containing hydroxyproline] | 0.14
